Data provenance is patent US20180334496A1.

Below: a set of entries, each annotated with reported Kd.
- assayed_system: T1, human complement factor D purified from serum (human, UniProt P00746 26-253)
- T1 construct: serum-purified (CompTech); also called hCFD-Comptech; CFD
- T1 sequence (P00746 26-253): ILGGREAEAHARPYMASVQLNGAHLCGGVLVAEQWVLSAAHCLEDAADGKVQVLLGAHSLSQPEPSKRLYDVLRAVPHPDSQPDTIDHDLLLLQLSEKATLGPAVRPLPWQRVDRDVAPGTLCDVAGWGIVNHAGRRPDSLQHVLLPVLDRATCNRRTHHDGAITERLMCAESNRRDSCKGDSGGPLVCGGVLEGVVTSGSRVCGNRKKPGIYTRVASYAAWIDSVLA
- method: SPR MX96
Answer in nM, number only, no unit symbol.

{"binder": "KCD118 (antibody, V domains shown, chimeric) VH: EVQLQQSGPELVKPGASVKISCKAFGYTFTDYYKNWMRQRHGESLEWIGDINPNSGDANYNQKFKGKATLTVDKSSSTAYMELRSLTSEDSAVYYCAREGPSFAYWGHGTLVTVSA VL: DVLMTQTPLSLPVSLGDQASISCRSSQTIVHSNGDTYLEWYLQKPGQSPNLLIYKVSNRFSGVPDRFSGSGSGTDFTLKISRVEAEDLGIYYCFQGSHVPPTFGGGTKLEIK", "unit_abbreviation": "nM", "result_number": 0.76}

Next up:
binder KCD102 (antibody, V domains shown, chimeric) VH: QVQLQQPGAELVRPGTSVKLSCKASGYTFTSYWMHWVKQRPGQGLEWIGVIDPSDSYTNYNQKFKGKATLTVDTSSSTAYMQLSSLTSEDSAVYYCARNGYDGSMDYWGQGTSVTVSS VL: EIQMTQTTSSLSASLGDRVTISCRASQDISNYLNWYQQKPDGTVKLLIYYPSRLHSGVPSRFSGSGSGTDYSLTISNLEQEDFATYFCQQGNTLPYTFGGGTKLEIK , Kd observed: 3.6
